growth inhibition reference
experimentDescription: NCI Yeast Anticancer Drug Screen. Data for the mec2-1 strain (AID 157)
details: S. cerevisiae mec2-1 strain, at 50.0 µM, stronger effect = higher value
This is part of a sample that, as a whole, favours compounds with a hit. Of some 79,000 tested, about 15% had one in any assay.
Output spec: scalar in %, unitless text.

GET /value?item= Nc1ccc(Nc2ccc([N+](=O)[O-])cc2S(=O)(=O)O)cc1 &field=growth inhibition returns 4

====

experimentDescription: NCI Yeast Anticancer Drug Screen. Data for the mec2-1 strain (AID 157)
details: S. cerevisiae mec2-1 strain, at 50.0 µM
This is part of a sample that, as a whole, favours compounds with a hit. Of some 79,000 tested, about 15% had one in any assay. The source made the active and inactive calls. Rule as the data show it: active = growth inhibition above about 70%; inactive = the rest.
Would you mind answering with one of these outcomes? active, inactive

A selection of reference data follows.
{"compound": "CN(C)CCC(=O)C(=Cc1ccc(O)cc1)C(=O)CCN(C)C", "label": "inactive"}
{"compound": "c1ccc(/C2=C(\\c3ccccc3)CSSSSC2)cc1", "label": "inactive"}
{"compound": "CC1CCC2(OC1)OC1CC3C4CCC5CC(O)CCC5(C)C4C(=O)C(O)C3(C)C1C2C (stereo unspecified)", "label": "inactive"}

IN: Identify the outcome logged in this assay for the compound shown: O=c1n(-c2ccccc2)c(=O)n2c(-c3ccccc3)c(-c3ccccc3)n12
OUT: inactive

IN: Identify the outcome logged in this assay for the compound shown: O=C(NCCCN(CCCCN(CCCNC(=O)C(F)(F)F)Cc1ccc2ccccc2c1)Cc1ccc2ccccc2c1)C(F)(F)F
OUT: active

IN: Identify the outcome logged in this assay for the compound shown: CC1(C)S[C@H](c2ccccc2C(=O)O)N[C@@H]1CC(=O)O
OUT: inactive

IN: Identify the outcome logged in this assay for the compound shown: CCOC(=O)C[N+]1(C)CCC(O)CC1 (stereo unspecified)
OUT: inactive
